Molecular target: HLA B*07 (human)
Experiment: T2B7 HLA stabilisation assay, flow cytometry, 10/20/200 ug/ml, four assays
Documented Binding number (binding score) across a set of binders
Reported Endpoint: Binding number (binding score)

Binder | Numeric Readout
PETPQGLAKI [WNVB7 3403] | 0
AAKKKGASLL [WNVB7 0006] | 4
RPAADGRTVM [WNVB7 0023] | 12
KPTGSASSLV [WNVB7 0015] | 6
NPMILAAGLI [WNVB7 0007] | 2
RPQRHDEKTL [WNVB7 0019] | 11
TPAAPSYTLK [WNVB7 0009] | 8
RPRWIDARVY [WNVB7 0017] | 11
PEDIDCWCTK [WNVB7 3399] | 1
SPHRVPNYNL [WNVB7 0020] | 12
PFPESNSPIS [WNVB7 3411] | 1
VPCRGQDELV [WNVB7 0010] | 4
PRTNTILEDN [WNVB7 3415] | 0
TPGLRCLNLD [WNVB7 0024] | 2
VPGTKIAGML [WNVB7 0018] | 6
AVKDELNTLL [WNVB7 0004] | 0
